Measured values drawn from ChEMBL document CHEMBL5230131 for this set.

biological target: Aquaporin-1 (Homo sapiens, UniProt P29972); assay: Inhibition of human AQP1 water channel expressed in Xenopus laevis oocytes assessed as inhibition of AQP1-mediated osmotic swelling incubated for 1 to 2 hrs by videomicroscopy analysis; assay type: cell-based, Oocyte
Sequence (P29972 whole entry): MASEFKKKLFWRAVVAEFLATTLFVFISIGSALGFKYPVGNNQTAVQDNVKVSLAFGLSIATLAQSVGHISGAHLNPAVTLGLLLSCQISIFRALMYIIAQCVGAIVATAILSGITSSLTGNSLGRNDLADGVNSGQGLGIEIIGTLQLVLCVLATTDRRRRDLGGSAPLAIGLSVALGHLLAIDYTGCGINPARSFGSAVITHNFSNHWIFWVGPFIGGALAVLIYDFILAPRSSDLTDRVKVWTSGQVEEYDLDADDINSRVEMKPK
value.kind: IC50 (µM)
The reply should contain only the number, in µM.

Query: I'd like to know its IC50. The compound in question is CCCCNc1cc(C(=O)Nc2ccncc2)cc(S(N)(=O)=O)c1Oc1ccccc1
Result: 20

Query: I'd like to know its IC50. The compound in question is S=C(NCc1ccc2c(c1)OCO2)Nc1ccc2nsnc2c1
Result: 17.5
